System: HOP-92 NSCLC
Test: NCI-60 one-dose screen, 48 h
Conditions: 10 µM
The panel holds about 83,000 compounds, 20% with a hit somewhere; the sample as a whole holds those more often. Calls of active or inactive are those of the source. The calls were made as follows: active = growth percent below 10; inactive = the rest.
# valid calls are active, inactive; nothing else

smiles=C#C[C@]1(O)CC[C@H]2[C@@H]3CC[C@H]4CC(F)(F)CC[C@]4(C)[C@H]3CC[C@@]21C assay_system="HOP-92 NSCLC" class=inactive
smiles=O=C(N/N=C/c1ccccc1O)c1ccccc1 assay_system="HOP-92 NSCLC" class=active
smiles=CC(C)/C(=N/O)c1ccccc1 assay_system="HOP-92 NSCLC" class=inactive
smiles=C[C@H](NC(=O)[C@@H]1CSSC[C@@H](NC(=O)Cc2nc3ccccc3cc2O)C(=O)NCC(=O)N1C)c1ccccc1 assay_system="HOP-92 NSCLC" class=inactive

Please look at the following molecule next.
Returns: the outcome recorded for "O=C(O)c1cc(C(F)(F)F)cc(C(F)(F)F)c1" in this assay. inactive

----------
Tested on: A498 renal
Assay: NCI-60 one-dose screen, 48 h (100 = growth as untreated, 0 = no growth, -100 = all killed)
Settings: 10 µM
Compounds without any hit were thinned out: in the full panel of roughly 83,000, 20% have a hit. Calls of active or inactive are those of the source. How the source made its calls: active means growth percent below 10; inactive means the rest.
Quick list: growth per entry.

Use the examples below as a reference point.
molecule=COc1ccc(-c2oncc2-c2cc(OC)c3c(c2)OCO3)cc1 assay_system="A498 renal" result="7.82% (active)"
molecule=CS(=O)(=O)Nc1ccc(Nc2c3ccccc3nc3cc(Cl)ccc23)cc1 assay_system="A498 renal" result="48.5% (inactive)"
molecule=O=CNc1c(Cl)cc2c(c1Cl)Cc1cc([N+](=O)[O-])ccc1-2 assay_system="A498 renal" result="85.9% (inactive)"

// field: growth; key: "CCN1CCN(c2ccc(Nc3ncnc4c3nnn4CCc3cc(OC)cc(OC)c3)cc2)CC1" ; value = 65.6% (inactive)

// field: growth; key: "Fc1cc(-c2ncc(-c3cc(F)c(F)c(F)c3)c(NC3CCCCCC3)n2)cc(F)c1F" ; value = 96.8% (inactive)

// field: growth; key: "COc1ccc(CSc2nc3cc(OC)c(OC)cc3c(=O)n2-c2ccc(OC)cc2OC)cc1" ; value = 58.6% (inactive)

// field: growth; key: "C[C@H](NC(=O)[C@@H]1CSSC[C@@H](NC(=O)Cc2nc3ccccc3cc2O)C(=O)NCC(=O)N1C)c1ccccc1" ; value = 120% (inactive)

----------
System: HOP-92 NSCLC
Assay: NCI-60 one-dose screen, 48 h (100 = growth as untreated, 0 = no growth, -100 = all killed)
Details: 10 µM
The panel holds about 83,000 compounds, 20% with a hit somewhere; the sample as a whole holds those more often.
Quick list: growth per entry.
The figure you give is taken to be in %; do not add the unit.

Use the examples below as a reference point.
molecule=Cc1nc2cc(-n3c(-c4ccc(F)cc4)nc4ccccc4c3=O)ccc2n1Cc1ccccc1 assay_system="HOP-92 NSCLC" measurement_label=growth quantitative_result=-15.6
molecule=CCN(CC)CCOC(=O)c1ccc(N=Nc2ccc(O)c(OC)c2)cc1 assay_system="HOP-92 NSCLC" measurement_label=growth quantitative_result=94.6

// field: growth; key: "CCOC(=O)c1ccc(N(C=O)CCC(=O)CCl)cc1" ; value = -7.96

// field: growth; key: "CCOC(=O)CNC(=O)Nc1ccc(Oc2ccc(NC(=O)NCC(=O)OCC)cc2)cc1" ; value = 92.2
